substrate: C=C(C)CCOP(=O)(O)O; experiment: PK-LDH coupled assay, A340; format: biochemical, Methanomethylophilus alvi; settings: 2 mM ATP, 5 mM MgCl2, 25 mM Tris pH 7.8, 37 °C
kcat: recorded values

protein | kcat
IPK from Candidatus methanomethylophilus alvus (CMA) (Candidatus Methanomethylophilus alvi Mx1201; T209A) (protein) MILIKLGGSVITDKSEYHKFNKETVSRLADEIRRSGQDVMVVHGAGSFGHVIAKKYAIQDGHVDDGQIPAAARIMCDTRELSSMVVEELLAQGIPAVSVAPGSCFVMEDGKLIVDNEEPIRRLADLGIMPVMFGDVVPDRKKGFAIVSGDQCMEVLCRMFDPEKVVFVSDIDGLYTADPKTDKKARLIGEVTRKKLDEALTDITVADVAGGVHSKMEAMLRMTDRNRRCYLVNGNAPNRLYSLLKGETVTCTVAKGGME | 0.038 s⁻¹
IPK from Candidatus methanomethylophilus alvus (CMA) (Candidatus Methanomethylophilus alvi Mx1201; T209S) (protein) MILIKLGGSVITDKSEYHKFNKETVSRLADEIRRSGQDVMVVHGAGSFGHVIAKKYAIQDGHVDDGQIPAAARIMCDTRELSSMVVEELLAQGIPAVSVAPGSCFVMEDGKLIVDNEEPIRRLADLGIMPVMFGDVVPDRKKGFAIVSGDQCMEVLCRMFDPEKVVFVSDIDGLYTADPKTDKKARLIGEVTRKKLDEALTDITVADVSGGVHSKMEAMLRMTDRNRRCYLVNGNAPNRLYSLLKGETVTCTVAKGGME | 7.2 s⁻¹
IPK from Candidatus methanomethylophilus alvus (CMA) (Candidatus Methanomethylophilus alvi Mx1201; I146A) (protein) MILIKLGGSVITDKSEYHKFNKETVSRLADEIRRSGQDVMVVHGAGSFGHVIAKKYAIQDGHVDDGQIPAAARIMCDTRELSSMVVEELLAQGIPAVSVAPGSCFVMEDGKLIVDNEEPIRRLADLGIMPVMFGDVVPDRKKGFAAVSGDQCMEVLCRMFDPEKVVFVSDIDGLYTADPKTDKKARLIGEVTRKKLDEALTDITVADVTGGVHSKMEAMLRMTDRNRRCYLVNGNAPNRLYSLLKGETVTCTVAKGGME | 68 s⁻¹
IPK from Candidatus methanomethylophilus alvus (CMA) (Candidatus Methanomethylophilus alvi Mx1201; V208A) (protein) MILIKLGGSVITDKSEYHKFNKETVSRLADEIRRSGQDVMVVHGAGSFGHVIAKKYAIQDGHVDDGQIPAAARIMCDTRELSSMVVEELLAQGIPAVSVAPGSCFVMEDGKLIVDNEEPIRRLADLGIMPVMFGDVVPDRKKGFAIVSGDQCMEVLCRMFDPEKVVFVSDIDGLYTADPKTDKKARLIGEVTRKKLDEALTDITVADATGGVHSKMEAMLRMTDRNRRCYLVNGNAPNRLYSLLKGETVTCTVAKGGME | 5.4 s⁻¹
IPK from Candidatus methanomethylophilus alvus (CMA) (Candidatus Methanomethylophilus alvi Mx1201; I74A/V208A) (protein) MILIKLGGSVITDKSEYHKFNKETVSRLADEIRRSGQDVMVVHGAGSFGHVIAKKYAIQDGHVDDGQIPAAARAMCDTRELSSMVVEELLAQGIPAVSVAPGSCFVMEDGKLIVDNEEPIRRLADLGIMPVMFGDVVPDRKKGFAIVSGDQCMEVLCRMFDPEKVVFVSDIDGLYTADPKTDKKARLIGEVTRKKLDEALTDITVADATGGVHSKMEAMLRMTDRNRRCYLVNGNAPNRLYSLLKGETVTCTVAKGGME | 4.9 s⁻¹
IPK from Candidatus methanomethylophilus alvus (CMA) (Candidatus Methanomethylophilus alvi Mx1201; I74A) (protein) MILIKLGGSVITDKSEYHKFNKETVSRLADEIRRSGQDVMVVHGAGSFGHVIAKKYAIQDGHVDDGQIPAAARAMCDTRELSSMVVEELLAQGIPAVSVAPGSCFVMEDGKLIVDNEEPIRRLADLGIMPVMFGDVVPDRKKGFAIVSGDQCMEVLCRMFDPEKVVFVSDIDGLYTADPKTDKKARLIGEVTRKKLDEALTDITVADVTGGVHSKMEAMLRMTDRNRRCYLVNGNAPNRLYSLLKGETVTCTVAKGGME | 42 s⁻¹
